Target: BCL2 F104I (Homo sapiens, UniProt P10415, F104I)
Experiment: TR-FRET competitive binding assay, BCL2 F104I
Details: Ki determined from IC50, read-out: TR_FRET EKI_Bcl2 F104I
pKi: −log10 of the molar value.
Give yes when the value for pKi is at least 9. Give no when it is less.

1. Cc1c(N(C(=O)c2cc(-c3cc4c(cc3C(=O)N3Cc5ccccc5C[C@H]3CN3CCCC[C@H]3C)CN(C(=O)Cc3ccc(OCCN5CCOCC5)cc3F)CC4)n(C)c2C)c2ccc(O)cc2)cc(C#N)n1C; yes
2. Cc1c(N(C(=O)c2cc(-c3cc4c(cc3C(=O)N3Cc5ccccc5C[C@H]3C)CN(C(=O)Cc3ccc(F)cc3)CC4)n(C)c2C)c2ccc(O)cc2)cc(C#N)n1C; no
3. Cc1c(N(C(=O)c2cc(-c3cc4c(cc3C(=O)N3Cc5ccccc5C[C@H]3CN3CCCCCC3)CN(C(=O)Cc3ccc(OCCN5CCOCC5)cc3F)CC4)n(C)c2C)c2ccc(O)cc2)cc(C#N)n1C; yes
4. Cc1c(N(C(=O)c2cc(-c3cc4c(cc3C(=O)N3Cc5ccccc5C[C@H]3CN3CCCCC3)CN(C(=O)Cc3ccc(O[C@H]5CCN(CCF)C5)cc3F)CC4)n(C)c2C)c2ccc(O)cc2)cc(C#N)n1C; yes
